test target: HDAC6 (Homo sapiens (Human))
Sequence (Q9UBN7 whole entry): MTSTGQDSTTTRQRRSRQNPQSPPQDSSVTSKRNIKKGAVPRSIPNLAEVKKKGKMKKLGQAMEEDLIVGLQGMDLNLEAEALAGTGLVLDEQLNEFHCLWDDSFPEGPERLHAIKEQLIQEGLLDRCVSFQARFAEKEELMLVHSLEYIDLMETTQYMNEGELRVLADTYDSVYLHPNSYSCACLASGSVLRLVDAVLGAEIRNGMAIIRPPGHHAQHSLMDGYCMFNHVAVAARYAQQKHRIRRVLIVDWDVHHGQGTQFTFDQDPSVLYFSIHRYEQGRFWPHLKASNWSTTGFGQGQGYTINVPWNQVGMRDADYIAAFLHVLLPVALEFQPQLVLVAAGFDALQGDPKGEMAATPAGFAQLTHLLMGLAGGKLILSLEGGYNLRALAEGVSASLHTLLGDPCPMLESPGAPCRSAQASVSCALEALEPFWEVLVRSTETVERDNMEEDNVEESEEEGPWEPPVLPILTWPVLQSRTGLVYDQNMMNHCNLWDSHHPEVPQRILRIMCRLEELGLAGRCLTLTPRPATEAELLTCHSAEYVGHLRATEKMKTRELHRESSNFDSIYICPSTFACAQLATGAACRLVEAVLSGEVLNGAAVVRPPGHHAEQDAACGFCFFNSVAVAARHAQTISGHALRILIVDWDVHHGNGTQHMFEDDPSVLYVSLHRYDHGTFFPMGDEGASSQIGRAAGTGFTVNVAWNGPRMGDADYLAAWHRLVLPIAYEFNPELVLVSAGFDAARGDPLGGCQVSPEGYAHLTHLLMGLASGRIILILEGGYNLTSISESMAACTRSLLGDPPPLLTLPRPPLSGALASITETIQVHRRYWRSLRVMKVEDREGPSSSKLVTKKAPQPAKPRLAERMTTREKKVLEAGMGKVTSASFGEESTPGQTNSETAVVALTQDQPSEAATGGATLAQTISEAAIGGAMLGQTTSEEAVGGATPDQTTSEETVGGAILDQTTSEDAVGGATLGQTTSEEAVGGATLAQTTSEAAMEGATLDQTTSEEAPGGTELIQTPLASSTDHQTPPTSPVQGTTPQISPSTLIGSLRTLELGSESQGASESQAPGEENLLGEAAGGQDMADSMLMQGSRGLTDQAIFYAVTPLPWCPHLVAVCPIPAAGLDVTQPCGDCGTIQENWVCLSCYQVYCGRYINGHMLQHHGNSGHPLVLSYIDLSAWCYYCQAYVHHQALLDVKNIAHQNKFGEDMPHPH
method: HDAC6 in vitro enzymatic assay (fluorescence)
Format: biochemical
test conditions: Table 4 selectivity profiling; read-out: IC50 (nM) HDAC6
recorded endpoint: IC50 (nM)
Answers are plain numbers, in nM.

Would you please look over these solved cases?
smiles record: COc1ccc(-c2ccc(-c3nc4cc(C(=O)NO)ccc4o3)c(F)c2)cn1
unit label: nM
IC50: 16
//
smiles record: CC(C)c1ccc(Nc2nc3cc(C(=O)NO)ccc3o2)cc1
unit label: nM
IC50: 51
//
smiles record: COc1ccc(-c2ccc(-c3nc4cc(C(=O)NO)ccc4o3)cc2)cn1
unit label: nM
IC50: 3
//
smiles record: O=C(NO)c1ccc2oc(-c3ccc(C(F)(F)F)cc3)nc2c1
unit label: nM
IC50: 37
//
smiles record: CC(C)c1ccc(-c2nc3cc(C(=O)NO)ccc3o2)cc1
unit label: nM
IC50: 26
//
smiles record: O=C(NO)c1ccc2oc(-c3ccccc3Cl)nc2c1
unit label: nM
IC50: 5

Give IC50 for all compounds that follow.
1. O=C(NO)c1ccc2sc(-c3cccnc3)cc2c1
2. O=C(NO)c1ccc2nc(-c3cccc4cccnc34)sc2c1
3. O=C(NO)c1ccc2sc(-c3ccc(F)cc3)nc2c1
4. CC(C)(C)c1ccc(-c2nc3cc(C(=O)NO)ccc3s2)cc1

1: 64; 2: 65; 3: 18; 4: 22
